- SYSTEM_UNDER_TEST: GSK3b (GST-full length GSK3b) (Homo sapiens (Human), UniProt P49841)
- Sequence (P49841 whole entry): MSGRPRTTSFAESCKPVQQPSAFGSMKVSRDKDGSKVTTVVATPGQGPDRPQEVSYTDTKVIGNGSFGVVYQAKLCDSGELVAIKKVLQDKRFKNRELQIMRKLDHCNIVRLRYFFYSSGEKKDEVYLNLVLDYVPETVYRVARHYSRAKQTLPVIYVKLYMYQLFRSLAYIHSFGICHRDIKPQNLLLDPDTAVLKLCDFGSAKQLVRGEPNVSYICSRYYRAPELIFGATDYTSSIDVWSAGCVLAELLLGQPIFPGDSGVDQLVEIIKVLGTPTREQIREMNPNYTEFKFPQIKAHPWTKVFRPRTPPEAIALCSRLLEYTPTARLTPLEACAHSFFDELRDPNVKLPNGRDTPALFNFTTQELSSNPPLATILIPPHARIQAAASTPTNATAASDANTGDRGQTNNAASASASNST
- ASSAY_SUMMARY: GSK3b TR-FRET kinase assay
- Type: biochemical
- ASSAY_CONTEXT: 1 nM GSK3b, 2 μM ATP, 30 minute preincubation; geometric mean; read-out: GSK3-B TR-FRET BIOCHEMICAL (TR-FRET); GMean; IC50
This listing pairs compounds with measured IC50.

Please review the entries below; each comes with its answer.
- CC1(C)CC2=C(C(=O)N1)C1(CCN(S(=O)(=O)c3cnn(C(C)(C)C)c3)CC1)c1c[nH]nc1N2 [Compound 947835]: 100 to 1000 nM
- CC[C@@]1(c2cccc(-c3cnn(C)c3C#N)c2)C2=C(CC(C)(C)NC2=O)Nc2n[nH]cc21 [Compound 948814]: > 5000 nM
- CCC1(c2cccc(N(C)c3ccncc3)c2)C2=C(CC(C)(C)CC2=O)Nc2n[nH]cc21 (stereo not shown) [Compound 874261]: > 5000 nM
- Cc1cccc(C2(C)C3=C(CC(C)(C)CC3=O)Nc3n[nH]cc32)c1 (stereo not shown) [Compound 785736]: 100 to 1000 nM
- CCC1(c2cccc(OC)c2)C2=C(CC(C)(C)NC2=O)Nc2n[nH]c(C)c21 (stereo not shown) [Compound 948763]: 100 to 1000 nM

Name the reported IC50 value associated with the compound CCC1(c2cccc(-c3cnn(C)c3)c2)C2=C(CC(C)(C)CC2=O)Nc2n[nH]cc21 (stereo not shown) [Compound 819576]
1000 to 5000 nM

# iterate: CCC1(c2cccc(C(F)F)c2)C2=C(CC(C)(C)NC2=O)Nc2n[nH]c(C(F)(F)F)c21 (stereo not shown) [Compound 948305]
≤ 100 nM

###

- SYSTEM_UNDER_TEST: GSK3b (GST-full length GSK3b) (Homo sapiens (Human), UniProt P49841)
- ASSAY_SUMMARY: GSK3b TR-FRET kinase assay
- Type: biochemical
- ASSAY_CONTEXT: 1 nM GSK3b, 2 μM ATP, 30 minute preincubation; geometric mean; read-out: GSK3-B TR-FRET BIOCHEMICAL (TR-FRET); GMean; IC50
- Protocol: TR-FRET Assay: The assay was performed in a white, 384 well, low volume, flat bottom plate (Grenier). After a 30 minute preincubation in assay buffer with the indicated concentration of compound, the kinase activity was initiated by the addition of the substrates. […] After 60 min at room temperature the plate was read on Envision plate reader using Ex: 340 nm, Em: 615 nm and […]. The normalized 665/615 Signal ratio versus log compound concentration was analyzed by XLFIT to yield IC50 values.
pIC50: −log10 of the molar value.
TEST_READOUT: pIC50

Please review the entries below; each comes with its answer.
• CCC1(c2cccc(N3CCCC3)c2)C2=C(CC(C)(C)CC2=O)Nc2n[nH]c(C(F)(F)F)c21 (stereo not drawn) [Compound 810506] = ≥ 7.00
• CC[C@]1(c2ccccc2)C2=C(CC3(CCCC3)CC2=O)Nc2n[nH]cc21 [Compound 789563] = < 5.30
• CCC1(c2cccc(Br)c2)C2=C(CC(C)(C)CC2=O)Nc2n[nH]cc21 (stereo not drawn) [Compound 790733] = ≥ 7.00
• CCC1(c2cccc(-c3ccnc(C)c3)c2)C2=C(CC(C)(COC)NC2=O)Nc2n[nH]cc21 (stereo not drawn) [Compound 948521] = 5.30 to 6.00
• CC[C@]1(c2cccc(-c3cncn3C)c2)C2=C(CC(C)(C)NC2=O)Nc2n[nH]cc21 [Compound 947820] = 6.00 to 7.00

State its pIC50 on GSK3b (GST-full length GSK3b) (Homo sapiens (Human), UniProt P49841): CC[C@]1(c2cccc(-c3ccnc(C)c3)c2)C2=C(CC3(CCOCC3)NC2=O)Nc2n[nH]c(C)c21 [Compound 948513]
6.00 to 7.00

# iterate: CCC1(c2cccc(C(F)(F)F)c2)C2=C(CC(C)(C)CC2=O)Nc2n[nH]c(Br)c21 (stereo not drawn) [Compound 810466]
≥ 7.00

# iterate: CCC1(c2cccc(N3CCCCC3)c2)C2=C(CC(C)(C)CC2=O)Nc2n[nH]cc21 (stereo not drawn) [Compound 801320]
6.00 to 7.00

# iterate: CCC1(c2cccc(-c3ccnc(C)c3)c2)C2=C(CC3(CCCOC3)NC2=O)Nc2n[nH]cc21 (stereo not drawn) [Compound 948153]
< 5.30

# iterate: CCC1(c2cccc(-c3ccncc3C)c2)C2=C(CC3(CCC3)NC2=O)Nc2n[nH]cc21 (stereo not drawn) [Compound 948523]
6.00 to 7.00

# iterate: CC[C@@]1(c2ccccc2)C2=C(Nc3n[nH]cc31)[C@H](C)C[C@@H](C)C2=O [Compound 865199]
< 5.30
